Molecular target: Mitogen-activated protein kinase 14 (Homo sapiens)
Test: Inhibition of p38a MAPK (unknown origin) by radiometric assay
Exam item: assign Met to entries whose IC50 is below 600 nM and Not met to entries at or above 600 nM. Note that a value of exactly 600 nM receives Not met.

Here's what some known entries look like.
Request: Does O[C@@H]1[C@@H](O)[C@H](O)O[C@H](Cn2cc(-c3nc(-c4ccc(F)cc4)c(-c4ccncc4)o3)nn2)[C@H]1O have IC50 strictly under 600 nM?
Result: Not met

Request: Does Cn1c(C#CCO)nc(-c2ccc(F)cc2)c1-c1ccncc1 have IC50 strictly under 600 nM?
Result: Met

Request: Does Cn1c(-c2cn(-c3cccc(C(=O)O)c3)nn2)nc(-c2ccc(F)cc2)c1-c1ccncc1 have IC50 strictly under 600 nM?
Result: Met

Request: Does C[C@@H](C(=O)O)n1cc(-c2nc(-c3ccc(F)cc3)c(-c3ccncc3)o2)nn1 have IC50 strictly under 600 nM?
Result: Not met

Request: Does Cn1c(-c2cn(CC(=O)N3CCN(CCO)CC3)nn2)nc(-c2ccc(F)cc2)c1-c1ccncc1 have IC50 strictly under 600 nM?
Result: Not met

Request: Does Cn1c(-c2cn(-c3ccccc3C(=O)O)nn2)nc(-c2ccc(F)cc2)c1-c1ccncc1 have IC50 strictly under 600 nM?
Result: Not met

Lab note: next compound to report on.
Request: Does CC(=O)OC[C@H]1O[C@H](OC(C)=O)[C@H](n2cc(-c3nc(-c4ccc(F)cc4)c(-c4ccncc4)o3)nn2)[C@@H](OC(C)=O)[C@@H]1OC(C)=O have IC50 strictly under 600 nM?
Result: Not met

====

Molecular target: Mitogen-activated protein kinase 14 (Homo sapiens, UniProt Q16539)
Sequence (Q16539 whole entry): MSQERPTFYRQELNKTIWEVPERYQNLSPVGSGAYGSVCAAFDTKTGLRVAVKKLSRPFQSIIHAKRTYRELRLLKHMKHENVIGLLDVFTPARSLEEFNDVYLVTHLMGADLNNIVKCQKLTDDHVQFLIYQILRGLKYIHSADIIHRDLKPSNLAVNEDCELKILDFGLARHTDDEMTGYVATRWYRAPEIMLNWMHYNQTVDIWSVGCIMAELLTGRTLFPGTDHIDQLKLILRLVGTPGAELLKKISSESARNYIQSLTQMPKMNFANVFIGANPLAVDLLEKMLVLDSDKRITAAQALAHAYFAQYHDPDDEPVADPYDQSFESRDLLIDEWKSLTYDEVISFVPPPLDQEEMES
Assay: Inhibition of p38a MAPK (unknown origin) by radiometric assay
The entries below are paired with their reported IC50.
Your answer is read as nM, so omit the unit and give the number.

Consider the reported IC50 for these molecules:
Request: If you can, please state the reported IC50 value of O=C(O)[C@H]1OC(n2cc(-c3nc(-c4ccc(F)cc4)c(-c4ccncc4)o3)nn2)[C@H](O)[C@@H](O)[C@@H]1O (some centres undefined) .
Result: 1170

Request: If you can, please state the reported IC50 value of Cn1c(-c2cn(CC(=O)O)nn2)nc(-c2ccc(F)cc2)c1-c1ccncc1 .
Result: 430

Request: If you can, please state the reported IC50 value of O=C(O)c1ccccc1-n1cc(-c2nc(-c3ccc(F)cc3)c(-c3ccncc3)o2)nn1 .
Result: 6510

Request: If you can, please state the reported IC50 value of Fc1ccc(-c2nc(-c3c[nH]nn3)oc2-c2ccncc2)cc1 .
Result: 380

Request: If you can, please state the reported IC50 value of Cn1c(-c2cn(-c3ccc(C(=O)O)cc3)nn2)nc(-c2ccc(F)cc2)c1-c1ccncc1 .
Result: 140

Request: If you can, please state the reported IC50 value of C#Cc1nc(-c2ccc(F)cc2)c(-c2ccncc2)n1C .
Result: 730

Request: If you can, please state the reported IC50 value of C[C@H](Nc1nccc(-c2c(-c3ccc(F)cc3)nc3nc(N)ccn23)n1)c1ccccc1 .
Result: 6

Turning to the following molecule.
Request: If you can, please state the reported IC50 value of C[C@@H](C(=O)O)n1cc(-c2nc(-c3ccc(F)cc3)c(-c3ccncc3)n2C)nn1 .
Result: 1440

====

Target: Mitogen-activated protein kinase 14 (Homo sapiens)
Assay: Inhibition of p38a MAPK (unknown origin) by radiometric assay
Measured metric: IC50 (nM)
Your answer is read as nM, so omit the unit and give the number.

Consider the reported IC50 for these molecules:
Request: If you can, please state the reported IC50 value of Cn1c(-c2c[nH]nn2)nc(-c2ccc(F)cc2)c1-c1ccncc1 .
Result: 140

Request: If you can, please state the reported IC50 value of Cn1cnc(-c2ccc(F)cc2)c1-c1ccncc1 .
Result: 430

Request: If you can, please state the reported IC50 value of CN(C)c1ccc(-n2cc(-c3nc(-c4ccc(F)cc4)c(-c4ccncc4)o3)nn2)cc1 .
Result: 19500

Turning to the following molecule.
Request: If you can, please state the reported IC50 value of Cn1c(-c2cn([C@@H]3[C@@H](O)[C@H](O)[C@@H](CO)O[C@@H]3O)nn2)nc(-c2ccc(F)cc2)c1-c1ccncc1 .
Result: 710

====

The entries below are paired with their reported IC50.
Target: Mitogen-activated protein kinase 14 (Homo sapiens, UniProt Q16539)
Experiment: Inhibition of p38a MAPK (unknown origin) by radiometric assay

Consider the reported IC50 for these compounds:
Request: If you can, please state the reported IC50 value of CC(=O)OC[C@H]1O[C@H](OC(C)=O)[C@H](n2cc(-c3nc(-c4ccc(F)cc4)c(-c4ccncc4)n3C)nn2)[C@@H](OC(C)=O)[C@@H]1OC(C)=O .
Result: > 100000 nM

Request: If you can, please state the reported IC50 value of Cn1c(-c2cn(C[C@H]3O[C@@H](O)[C@H](O)[C@@H](O)[C@@H]3O)nn2)nc(-c2ccc(F)cc2)c1-c1ccncc1 .
Result: 400 nM

Request: If you can, please state the reported IC50 value of Oc1ccccc1-n1cc(-c2nc(-c3ccc(F)cc3)c(-c3ccncc3)o2)nn1 .
Result: 2170 nM

Request: If you can, please state the reported IC50 value of O=C(O)Cn1cc(-c2nc(-c3ccc(F)cc3)c(-c3ccncc3)o2)nn1 .
Result: 3200 nM

---
Request: If you can, please state the reported IC50 value of Cn1c(-c2cn(-c3ccccc3O)nn2)nc(-c2ccc(F)cc2)c1-c1ccncc1 .
Result: 1590 nM

====

Target: Mitogen-activated protein kinase 14 (Homo sapiens)
Assay: Inhibition of p38a MAPK (unknown origin) by radiometric assay
The entries below are paired with their reported IC50.
Your answer is read as nM, so omit the unit and give the number.

Consider the reported IC50 for these molecules:
Request: If you can, please state the reported IC50 value of Cn1c(-c2cn(CC(=O)NCCO)nn2)nc(-c2ccc(F)cc2)c1-c1ccncc1 .
Result: 890

Request: If you can, please state the reported IC50 value of Fc1ccc(-c2nc(-c3cn(Cc4ccccc4)nn3)oc2-c2ccncc2)cc1 .
Result: 158000

Request: If you can, please state the reported IC50 value of CCOC(=O)Cn1nncc1-c1nc(-c2ccc(F)cc2)c(-c2ccncc2)n1C .
Result: 56000

Request: If you can, please state the reported IC50 value of Cn1c(-c2cn(CCO)nn2)nc(-c2ccc(F)cc2)c1-c1ccncc1 .
Result: 500

Request: If you can, please state the reported IC50 value of Cn1c(-c2cn(CCOCCOCCOCCN)nn2)nc(-c2ccc(F)cc2)c1-c1ccncc1 .
Result: 5180

Request: If you can, please state the reported IC50 value of Cn1c(-c2cn([C@@H](CC(=O)O)C(=O)O)nn2)nc(-c2ccc(F)cc2)c1-c1ccncc1 .
Result: 2300

Request: If you can, please state the reported IC50 value of O=C(O)c1ccc(-n2cc(-c3nc(-c4ccc(F)cc4)c(-c4ccncc4)o3)nn2)cc1 .
Result: 190

Request: If you can, please state the reported IC50 value of OC[C@H]1O[C@H](O)[C@H](n2cc(-c3nc(-c4ccc(F)cc4)c(-c4ccncc4)o3)nn2)[C@@H](O)[C@@H]1O .
Result: 1190

Turning to the following molecule.
Request: If you can, please state the reported IC50 value of C#Cc1nc(-c2ccc(F)cc2)c(-c2ccncc2)o1 .
Result: 1790

====

Target: Mitogen-activated protein kinase 14 (Homo sapiens)
Experiment: Inhibition of p38a MAPK (unknown origin) by radiometric assay
The entries below are paired with their reported IC50.
Your answer is read as nM, so omit the unit and give the number.

Consider the reported IC50 for these compounds:
Request: Kindly state the measured IC50 obtained for Cn1c(-c2cn(-c3cccc(C(=O)O)c3)nn2)nc(-c2ccc(F)cc2)c1-c1ccncc1 with Mitogen-activated protein kinase 14 (Homo sapiens).
Result: 185

Request: Kindly state the measured IC50 obtained for Cn1c(-c2cn(C(C)(C)C(=O)O)nn2)nc(-c2ccc(F)cc2)c1-c1ccncc1 with Mitogen-activated protein kinase 14 (Homo sapiens).
Result: 1490

Request: Kindly state the measured IC50 obtained for CCOC(=O)Cn1cc(-c2nc(-c3ccc(F)cc3)c(-c3ccncc3)n2C)nn1 with Mitogen-activated protein kinase 14 (Homo sapiens).
Result: 1870

Request: Kindly state the measured IC50 obtained for Cn1c(-c2cn(CCOCCOCCOCCO)nn2)nc(-c2ccc(F)cc2)c1-c1ccncc1 with Mitogen-activated protein kinase 14 (Homo sapiens).
Result: 11200

Turning to the following compound.
Request: Kindly state the measured IC50 obtained for OCCOCCOCCOCCn1cc(-c2nc(-c3ccc(F)cc3)c(-c3ccncc3)o2)nn1 with Mitogen-activated protein kinase 14 (Homo sapiens).
Result: 12500
